# System: SF-539 CNS
# procedureDetails: NCI-60 one-dose screen, 48 h (100 = growth as untreated, 0 = no growth, -100 = all killed)
# setupConditions: 10 µM unless noted
About 83,000 compounds went through this panel and 20% of them were active in at least one assay; those are over-represented in the sample as a whole.
readoutName: growth (%)
Please give a number only; it is taken to be in %.

Query block: Test system SF-539 CNS; read-out growth; what value for O=C(N/N=C/c1ccccc1O)c1ccccc1O ?
Result block: 34.5

Query block: Next compound up: Nc1nccc2c1ccn2-c1ccc(NC(=O)Nc2cccc(C(F)(F)F)c2)cc1
Result block: 86.1

Query block: Next compound up: C#CC(=O)/C=C/CCCCCCC#CC(=O)CCC(=O)C#CCCCCCC/C=C/C(=O)C#C
Result block: -34.5

Query block: Next compound up: CCCN1C(=O)CSC1=Nc1ccc2cc3ccc(N=C4SCC(=O)N4CCC)cc3nc2c1
Result block: 46

Query block: Next compound up: CCCCNc1cc(C(=O)O)cc(S(N)(=O)=O)c1Oc1ccccc1
Result block: 105

Query block: Next compound up: COc1cccc(/C=N/C(=S)NC2(C)C3CCC(C3)C2(C)C)c1O (centres undefined)
Result block: 95.3

Query block: Next compound up: CCN(CC)CCNCC(O)Cc1ccc(OC)cc1 (centres undefined)
Result block: 106

Query block: Next compound up: C=C1C(=O)O[C@H]2[C@H]1CC/C(COC(=O)c1cccc3ccccc13)=C\CC[C@@]1(C)O[C@@H]21
Result block: -93.1

Query block: Next compound up: COc1ccccc1S(=O)(=O)Nc1ccc2c3c(cc(-c4cnn(C)c4)nc13)C(=O)N2C
Result block: 34.6

Query block: Next compound up: O=C(O)c1cccc(S(=O)(=O)c2ccccc2)c1
Result block: 98.5

Query block: Next compound up: Cc1cn(-c2cc(C(=O)Nc3cccc(-n4ccc5c(NC(=O)c6ccccc6)nccc54)c3)cc(C(F)(F)F)c2)cn1
Result block: -12.1

Query block: Next compound up: O=C(C[n+]1cccc(Br)c1)c1ccc2c(c1)CCCC2
Result block: 98.6

Query block: Next compound up: C/C(=N\N=C1/SCC(=O)N1c1ccccc1)c1ccco1
Result block: 118

Query block: Next compound up: C=C1C(=O)O[C@H]2[C@H]1CC/C(CNC(=O)/C1=C/CC[C@@]3(C)O[C@H]3[C@H]3OC(=O)C(=C)[C@@H]3CC1)=C\CC[C@@]1(C)O[C@@H]21
Result block: 95.6

Query block: Next compound up: COc1ccccc1S(=O)(=O)Nc1ccc2c3c(cc(-c4ccoc4)nc13)C(=O)N2C
Result block: 63.2

Query block: Next compound up: O=[N+]([O-])c1ccc(NS(=O)(=O)c2cc(Cl)ccc2Cl)c2ccccc12
Result block: 44.9

Query block: Next compound up: O=S(=O)(CCN1CCOCC1)Nc1cc(-c2ccc3ncnc(Nc4ccc(F)c(Cl)c4)c3c2)cnc1Cl
Result block: -34.5

Query block: Next compound up: COc1cc(NC(=O)C#Cc2ccccc2)c(OC)cc1Cl
Result block: 66.6

Query block: Next compound up: CC(C)CCC[C@@H](C)[C@H]1CC[C@H]2[C@@H]3CC=C4N(c5ccccc5)C(=O)CC[C@]4(C)[C@H]3CC[C@]12C
Result block: 101

Query block: Next compound up: CCCCCn1ncc(-c2c(O)c(O)cc3c(O)c(-c4c(C)cc5c(-c6cnn(CCCCC)n6)c(O)c(O)cc5c4O)c(C)cc23)n1
Result block: 3.31

Query block: Next compound up: O=C1OC(c2ccc(-c3ccccc3)cc2)=C/C1=C/C=C/c1ccccc1
Result block: 105

Query block: Next compound up: CCCCNC(=O)Oc1ccc(/C(=C(/CC)Cc2ccccc2)c2ccc(OCCCN(C)C)cc2)cc1
Result block: 88.5

Query block: Next compound up: COC(=O)c1ccc(NC(N)=NCC(C)(C)COc2ccc(C(F)(F)F)cc2)nc1
Result block: 82.6

Query block: Next compound up: NC(=O)C1=C[C@H]2[C@H]3C=C[C@@]2(O)C(=O)O[C@@H]3O1
Result block: 65.6

Query block: Next compound up: Cn1c(I)c(C#C[Si](C)(C)C)c(=O)[nH]c1=O
Result block: 96.7

Query block: Next compound up: NC(=NCCCOc1ccc(F)cc1)Nc1ccc(Cl)c(Cl)c1
Result block: 79.1

Query block: Next compound up: COC(=O)/C=C/C(=O)c1cc(C)cc(C)c1O
Result block: 99.5

Query block: Next compound up: Cc1cc(SCc2ccc(Cl)cc2Cl)nc(SCc2ccc(Cl)cc2Cl)n1
Result block: 98

Query block: Next compound up: Nn1c(SCC(=O)Nc2cc(Cl)c(Cl)cc2Cl)nnc1-c1cc(F)c(Cl)cc1Cl
Result block: 108

* * *

# Tested on: TK-10 renal
# procedureDetails: NCI-60 one-dose screen, 48 h
# setupConditions: 10 µM unless noted
This is part of a sample that, as a whole, favours compounds with a hit. Of some 83,000 tested, about 20% had one in any assay. Active and inactive are the calls of the source. Rule for the calls: active = growth percent below 10; inactive = the rest.
Outcomes you can answer with include only these: active, inactive

Query block: For this compound, state the assay outcome: C=C1C(=O)O[C@H]2[C@H]1CC/C(COC(=O)c1ccccc1)=C\CC[C@@]1(C)O[C@@H]21
Result block: active

Query block: Next compound up: O=c1c(-c2ccc3c(c2)OCO3)coc2c(CO)c(O)ccc12
Result block: active

Query block: Next compound up: O=C(/C=C/c1ccco1)c1cccc(Nc2nc(Nc3ccccc3)nc(Nc3ccccc3)n2)c1
Result block: inactive

Query block: Next compound up: Cc1cn(C2CC(N=[N+]=[N-])C(COP(=O)(O)OP(=O)(O)OP(=O)(O)O)O2)c(=O)[nH]c1=O (configuration not stated)
Result block: inactive

Query block: Next compound up: CCCOC(=O)c1ccc([N+](=O)[O-])o1
Result block: inactive

Query block: Next compound up: Cc1ccc2[nH]c3nc4cccnc4c(C)c3c2c1
Result block: inactive

Query block: Next compound up: Cc1cccc(Cc2cnc(NC(=O)CCc3ccc(C)o3)s2)c1
Result block: inactive

Query block: Next compound up: CCCCOc1c(N)cccc1C(=O)OCCN(CC)CC
Result block: inactive

Query block: Next compound up: CC(=O)c1ccc2c(c1)C1C=CCC1[C@H](c1cc3c(cc1Br)OCO3)N2 (some centres not stated)
Result block: inactive

Query block: Next compound up: COc1ccc(Cn2cc(COc3ccc4c5ccnc(C)c5n(CCCc5ccccc5)c4c3)nn2)cc1
Result block: inactive

Query block: Next compound up: NC(CSC(c1ccccc1)(c1ccccc1)c1ccc(F)cc1)C(=O)O (configuration not stated)
Result block: inactive

Query block: Next compound up: COc1cc2c(/C=C3/C(=O)Nc4ccc(O)cc43)c(Cl)n(Cc3cc(OC)c(OC)c(OC)c3)c2cc1C
Result block: inactive

Query block: Next compound up: CCN(CC)c1ccc(C2CC(c3cc(OC)c(OC)c(OC)c3)=NN2)cc1 (configuration not stated)
Result block: inactive

Query block: Next compound up: Clc1ccc2c(NCCNc3nc(Cl)nc4ccccc34)ccnc2c1
Result block: active

Query block: Next compound up: S=c1ssnc1-c1ccccn1
Result block: inactive

Query block: Next compound up: OCc1cn(-c2ccc(Cl)cc2)nc1-c1ccc(O)cc1
Result block: inactive

Query block: Next compound up: COc1ccccc1S(=O)(=O)Nc1ccc2c3c(cc(-c4ccoc4)nc13)C(=O)N2C
Result block: inactive

* * *

# Test system: KM12 colon
# procedureDetails: NCI-60 one-dose screen, 48 h (100 = growth as untreated, 0 = no growth, -100 = all killed)
# setupConditions: 10 µM unless noted
Compounds without any hit were thinned out: in the full panel of roughly 83,000, 20% have a hit.
readoutName: growth (%)
Please give a number only; it is taken to be in %.

Query block: Test system KM12 colon; read-out growth; what value for O=c1c2ccccc2[nH]n1Cc1ccc2c(c1)OCO2 ?
Result block: 102

Query block: Next compound up: CS(=O)(=O)Nc1cccc(-c2ccc3ncnc(Nc4ccc(F)c(Cl)c4)c3c2)c1
Result block: 21.6

Query block: Next compound up: Clc1ccc2c(c1)nnn1c3ncccc3c(Br)c21
Result block: 86.4

* * *

# Tested on: MCF7 breast
# procedureDetails: NCI-60 one-dose screen, 48 h (100 = growth as untreated, 0 = no growth, -100 = all killed)
# setupConditions: 10 µM unless noted
About 83,000 compounds went through this panel and 20% of them were active in at least one assay; those are over-represented in the sample as a whole.
readoutName: growth (%)
Please give a number only; it is taken to be in %.

Query block: Fill in the blank: the reported growth of COc1ccc(-c2c(NC(=O)Nc3ccc(Cl)c(C(F)(F)F)c3)cnn2-c2ccc(S(N)(=O)=O)cc2)cc1 is ____.
Result block: 11.5

Query block: Next compound up: O=C(NNC(=O)c1ccc([N+](=O)[O-])cc1)c1ccc([N+](=O)[O-])cc1
Result block: 90.4

Query block: Next compound up: CCN(CC)CCN1C(=O)c2c(c3c4ccccc4[nH]c3c3[nH]c4ccccc4c23)C1=O
Result block: 62

Query block: Next compound up: O=C(Nc1ccc(-n2cc(-c3ccncc3)c(-c3ccc(O)c(Cl)c3)n2)cc1)Nc1cccc(Cl)c1Cl
Result block: 42.2

Query block: Next compound up: COc1ccc(C(=O)NC(=O)Nc2ccc3c(c2)NC(=O)/C3=C\c2[nH]c(C)c(C(=O)O)c2C)cc1
Result block: 75

Query block: Next compound up: COc1ccc(C(=O)NC(=O)Nc2ccc3c(c2)NC(=O)/C3=C\c2[nH]c(C)c(CCC(=O)O)c2C)c(F)c1
Result block: 45.3

Query block: Next compound up: Cc1ccc2[nH]c3nc4cccnc4c(C)c3c2c1
Result block: 1.4

Query block: Next compound up: CCOc1ccc(Cc2nccc3cc(OCC)c(OCC)cc23)cc1OCC
Result block: 72.7

Query block: Next compound up: S=C=NP1(N=C=S)=NP(N=C=S)(N=C=S)=NP(N=C=S)(N=C=S)=NP(N=C=S)(N=C=S)=N1 (configuration not stated)
Result block: 91

Query block: Next compound up: O=C(Nc1ccc(-n2ccc3c(NC(=O)c4ccccc4)nccc32)cc1)c1ccc(Cl)c(C(F)(F)F)c1
Result block: -62.6

Query block: Next compound up: C[C@]12CC[C@@H]3c4ccc(O)c(N)c4CC[C@H]3[C@@H]1CC[C@@H]2O
Result block: 116

Query block: Next compound up: Cc1cc(N2CCOCC2)nc(N(CCNc2ccnc3cc(Cl)ccc23)Cc2ccco2)n1
Result block: 40.6

Query block: Next compound up: O=C(Nc1ccc(-n2ccc3c(NC(=O)c4ccccc4)nccc32)cc1)Nc1ccc(Cl)c(Cl)c1
Result block: -91.9

Query block: Next compound up: CCCCNc1cc(C(=O)O)cc(S(N)(=O)=O)c1Oc1ccccc1
Result block: 111

Query block: Next compound up: O=C1C(Cl)=C(Nc2cccc3cc4ccccc4nc23)C(=O)c2ccccc21
Result block: 20.1

Query block: Next compound up: Nc1ncnc2c1c(-c1ccc(Oc3ccccc3)cc1)nn2C[C@H]1SSC[C@@H]1O
Result block: 14.5

Query block: Next compound up: Clc1ccc(CN2COc3c(ccc4cccnc34)C2)cc1Cl
Result block: 12.6

Query block: Next compound up: CCCCOc1c(N)cc(Cl)cc1C(=O)OCCN(CC)CC
Result block: 93.3

Query block: Next compound up: CC(=O)N1N=C2N(Cc3ccccc3)C(=O)c3c(sc4c3CCCC4)N2C1c1cn(-c2ccccc2)nc1-c1ccc(Cl)cc1 (configuration not stated)
Result block: 92.4

Query block: Next compound up: CC(C)(CCN=C(N)Nc1ccccn1)c1ccc(C(F)(F)F)cc1
Result block: -11.2

Query block: Next compound up: O=C(Nc1ccc(-n2ccc3c(NC(=O)c4ccccc4)ncnc32)cc1)Nc1ccc(Cl)c(Cl)c1
Result block: 0.297

Query block: Next compound up: CC(NCCC(c1ccccc1)c1ccccc1)c1ccccc1 (configuration not stated)
Result block: 74.8
